- Test system: OVCAR-3 ovarian
- ASSAY SUMMARY: NCI tumour cell line growth inhibition, 48 h; in the data active means GI50 below about 0.43 µM; inactive means the rest
Answer with one of the outcomes 1 (yes) for active, 0 (no) for inactive

Below are worked cases with known answers.
COMPOUND	ANSWER LABEL
COc1ccc(/C=C(\C#N)n2nnc3cc(Cl)ccc32)cc1	1 (yes)
COC(=O)c1ccc(-c2nc3cc(F)c(F)cc3nc2C#N)cc1	0 (no)

query: What is the recorded call for this compound in the test? N.N.NCCCCN.O=C([O-])CC(=O)[O-].O=C([O-])CC(=O)[O-].[Pt+4].[Pt+4]
result: 0 (no)

query: What is the recorded call for this compound in the test? COC(=O)C1C(O)C(C)C(O)C(C)/C=C\C=C(C)C(=O)Nc2c(C)c(OC(C)=O)c3c(c2O)C(=O)C(C)=C2OCOC(=C23)C(C)=CC(C)(O)C(O)C(C)C1O (centres undefined)
result: 0 (no)

query: What is the recorded call for this compound in the test? COc1ccc(-c2nc3sccn3c2/C=C/C(=O)c2cc(OC)c(OC)c(OC)c2)cc1OC
result: 0 (no)

query: What is the recorded call for this compound in the test? Cc1c(C(=O)CCl)c(=O)n(-c2ccccc2)n1C
result: 0 (no)

query: What is the recorded call for this compound in the test? COc1ccc2c(CN3CCC(CO)CC3)cc3cc4c(cc3c2c1)OCO4
result: 1 (yes)

query: What is the recorded call for this compound in the test? Clc1ccc(Nc2ccnc(NCCNc3ccnc4cc(Cl)ccc34)n2)cc1
result: 0 (no)

query: What is the recorded call for this compound in the test? c1ccc(Oc2c3ccccc3nc3ccccc23)cc1
result: 0 (no)

query: What is the recorded call for this compound in the test? O=C1C(Cl)=C(Oc2ccccc2)C(=O)c2ccccc21
result: 0 (no)

query: What is the recorded call for this compound in the test? CCOC(=O)Oc1c(OC)cc(C(=O)c2ccc(OC)c(OC(=O)CCl)c2OC)cc1OC
result: 1 (yes)

query: What is the recorded call for this compound in the test? CCN(Cc1ccc(F)cc1F)c1ccc(CO)c(Cl)c1
result: 1 (yes)

query: What is the recorded call for this compound in the test? CS(=O)(=O)c1ccc(Oc2nccc(-c3c(-c4ccc(F)cc4)ncn3C3CCNCC3)n2)cc1
result: 0 (no)

query: What is the recorded call for this compound in the test? CC1/C=C/C=C/CC/C=C/C=C/C=C/C=C/C(OC2OC(C)C(O)C(N)C2O)CC2OC(CC(O)C(O)CCC(O)CC(O)CC(O)CC(=O)OC(C)C(C)C1O)CC(O)C2C(=O)O (centres undefined)
result: 0 (no)

====

- Tested on: SK-OV-3 ovarian
- ASSAY SUMMARY: NCI tumour cell line growth inhibition, 48 h
Would you kindly list GI50 for each of these compounds?

Solved entries (count: 8):
COMPOUND	SYSTEM UNDER TEST	ENDPOINT VALUE
COc1cc(/C=C2\CC(C)CC3C2=NN(c2ccccc2)C3c2cc(OC)c(OC)c(OC)c2)cc(OC)c1OC (configuration not stated)	SK-OV-3 ovarian	9.14 µM
O=C1C(Cl)=C(Oc2ccccc2)C(=O)c2ccccc21	SK-OV-3 ovarian	6.51 µM
COC(=O)c1ccc(-c2nc3cc(F)c(F)cc3nc2C#N)cc1	SK-OV-3 ovarian	9.77 µM
COc1cccc2c(Nc3ccc(C(=O)NCCNCCO)cc3)cc(-c3ccccc3)nc12	SK-OV-3 ovarian	86.7 µM
C[C@@H](Oc1cc(-c2cnn(C3CCNCC3)c2)cnc1N)c1c(Cl)ccc(F)c1Cl	SK-OV-3 ovarian	5.85 µM
NCCCn1c2c(c3ccccc3c1=O)C(=O)c1cc3c(cc1-2)OCO3	SK-OV-3 ovarian	1.93 µM
CC1/C=C/C=C/CC/C=C/C=C/C=C/C=C/C(OC2OC(C)C(O)C(N)C2O)CC2OC(CC(O)C(O)CCC(O)CC(O)CC(O)CC(=O)OC(C)C(C)C1O)CC(O)C2C(=O)O (configuration not stated)	SK-OV-3 ovarian	47.1 µg/mL
COc1c(O)cc2oc3cc(O)c(CC=C(C)C)c(O)c3c(=O)c2c1C/C=C(\C)CCC=C(C)C	SK-OV-3 ovarian	5.86 µM

Field: GI50. Fill in for each record below.
1. CCOC(=O)Oc1c(OC)cc(C(=O)c2ccc(OC)c(OC(=O)CCl)c2OC)cc1OC
2. CN(C)CCCNC(=O)c1cc(NC(=O)c2cc(NC(=O)CCCN3c4ccccc4C=Cc4ccccc43)cn2C)cn1C
3. COc1ccc(/C=C/C(=O)/C=C(/C=C/c2ccc(OC)c(OC)c2)OB(F)F)cc1OC
4. N.N.NCCCCN.O=C([O-])CC(=O)[O-].O=C([O-])CC(=O)[O-].[Pt+4].[Pt+4]
5. COc1ccc(-n2c(-c3ccc(NC(=O)CCCl)cc3)nnc2-c2cc(OC)c(OC)c(OC)c2)cc1
6. COc1ccc(/C=C(\C#N)n2nnc3cc(Cl)ccc32)cc1

result:
["2.58 µM", "21.9 µM", "2.98 µM", "> 100 µM", "4.34 µM", "7.09 µM"]

====

- Tested on: HCT-116 colon
- ASSAY SUMMARY: NCI tumour cell line growth inhibition, 48 h
Threshold check on TGI: at or above 20 µM gives yes (1), strictly below gives no (0).

COMPOUND	ANSWER LABEL
Cc1nc(C)c(N2CCN(C(=O)NC(CCC(=O)O)C(=O)O)CC2)c(=O)[nH]1 (configuration not stated)	yes (1)
O=C1CCCSCCCC(=O)CCCSCCC1	yes (1)
COc1cccc2c1C(=O)c1c(O)c3c(c(O)c1C2=O)CC(O)(C(C)=O)CC3OC1CC([N+](C)(C)C)C(O)C(C)O1 (configuration not stated)	yes (1)
O=C(c1c(F)c(F)c(F)c(F)c1F)n1c(=O)[nH]c2ccccc21	no (0)

query: Is reported TGI greater than or equal to 20 µM here: C=C1C(=O)OC2C1C(OC(=O)/C(C)=C/C)CC(O)(CCl)C1C(OC(C)=O)C=C(C)C21O (configuration not stated)
result: yes (1)

query: Is reported TGI greater than or equal to 20 µM here: Cc1ccc(C)c(-n2c(-c3ccc(Br)cc3)csc2=NC(=O)c2ccccc2F)c1
result: yes (1)

====

- Tested on: MDA-MB-435
Answer with one of the outcomes label 1 = active, label 0 = inactive

Below are worked cases with known answers.
COMPOUND	ANSWER LABEL
CC1=C(C(=O)Nc2ccc(F)c(Cl)c2)C(c2cccc(O)c2)NC(=S)N1 (stereo unspecified)	label 0
O=C(Nc1ncc([N+](=O)[O-])s1)c1cccc([N+](=O)[O-])c1	label 0
CC(C)(C)[Si](C)(C)OC1[C@@H](O[Si](C)(C)C(C)(C)C)[C@@H](CNC(=O)NC(=O)NC(=O)CI)O[C@H]1n1cnc2c(NC(=O)Nc3ccccc3)ncnc21 (stereo partly specified)	label 0
O=C(CCl)Nc1ccccc1SCc1cc(Cl)cc2c1OCOC2	label 0
CCN(CC)c1ccc2[nH]c3c(C(N)=O)cc(=O)c(=O)c=3oc2c1	label 1
O=C1c2cccnc2-c2nc(-c3ccccn3)cc3c2c1nc1ccccc13	label 0
O=c1oc2ccccc2c(Cl)c1Cl	label 0
O=C(CSc1nc2ccc([N+](=O)[O-])cc2[nH]1)Nc1cccc(C(F)(F)F)c1	label 0

query: What is the recorded call for this compound in the test? COc1ccc(C(=O)c2cc(OC)c(OC)c(OC)c2)cc1/C=C/C(=O)c1ccc(O)cc1
result: label 0

query: What is the recorded call for this compound in the test? CCOC(=O)c1sc2ncn(Cc3cccc(Cl)c3)c(=O)c2c1C
result: label 0

query: What is the recorded call for this compound in the test? COc1ccc(-n2c(-c3ccc(NC(=O)CCCl)cc3)nnc2-c2cc(OC)c(OC)c(OC)c2)cc1
result: label 0

====

- System: SK-MEL-5 melanoma
- ASSAY SUMMARY: NCI tumour cell line growth inhibition, 48 h
ASSAY ENDPOINT: GI50

Field: GI50. Fill in for each record below.
1. CS(=O)(=O)c1ccc(Oc2nccc(-c3c(-c4ccc(F)cc4)ncn3C3CCNCC3)n2)cc1
2. COc1cccc(-c2nc(-c3ccc(NS(=O)(=O)c4ccccc4)cc3)[nH]c2-c2ccnc(Br)c2)c1

result:
> 25 µM
1.87 µM

Field: GI50. Fill in for each record below.
1. Cc1cc(S(=O)(=O)Nc2nnc(-c3ccco3)c(-c3ccco3)n2)c(SCc2ccccc2)cc1Cl
2. OCc1ccc(N(Cc2ccc(F)cc2)C2CCC2)cc1Cl
3. COc1cccc2c(Nc3ccc(C(=O)NCCNCCO)cc3)cc(-c3ccccc3)nc12

result:
17.5 µM
9.11 µM
38.6 µM

====

- Test system: HCC-2998 colon
- ASSAY SUMMARY: NCI tumour cell line growth inhibition, 48 h
Would you kindly list TGI for each of these molecules?

Solved entries (count: 3):
MOLECULE	TGI
CC(C)(C)[Si](C)(C)OC1[C@@H](O[Si](C)(C)C(C)(C)C)[C@@H](CNC(=O)NC(=O)NC(=O)CI)O[C@H]1n1cnc2c(NC(=O)Nc3ccccc3)ncnc21 (some centres undefined)	17.8 µM
CN(C)CCCNC(=O)c1cc(NC(=O)c2cc(NC(=O)CCCN3c4ccccc4C=Cc4ccccc43)cn2C)cn1C	4.03 µM
C(=C\c1ccccc1)/Cn1nc(-c2ccccc2)nc1-c1cnccn1	> 100 µM

Field: TGI. Fill in for each record below.
1. COCC1N=C(c2ccc(OC)c(OCc3ccccc3)c2OC)O[C@H]1c1ccccc1 (some centres undefined)
2. CC(C)(C)c1cc(C(C)(C)C)c(P=C(Cl)Cl)c(C(C)(C)C)c1 (centres undefined)
3. Cc1ccc(/C(O)=C/c2nc3ccccc3nc2NC23CC4CC(CC(C4)C2)C3)cc1
4. O=C1NC(=O)C2=C1CCC2O (centres undefined)
5. COc1ccc(-c2cc(-c3ccccc3)c3c(n2)-c2ccccc2NC(=O)C3)cc1
6. O=c1cnn(C/C=C/CP(=O)(O)O)c(=O)[nH]1

result:
> 100 µM
> 100 µM
> 10 µM
> 100 µM
> 100 µM
> 100 µM
